Target desc: PDZRN4_1, Q6ZMN7
Sequence (Q6ZMN7 213-318): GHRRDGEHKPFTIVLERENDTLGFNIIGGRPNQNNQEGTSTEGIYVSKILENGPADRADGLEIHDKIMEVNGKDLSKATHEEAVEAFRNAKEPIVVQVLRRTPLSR
Assay notes: holdup assay
Parameters: key: below the threshold = too weak to quantify, mostly under pKd 3.1 to 4
Condition parameters: plain residues with an end cap or a label only (N-terminal biotin on a linker: ttds)
Metric name: pKd

SGSRPSATVV [HPV73-E6, Q82005]	below the threshold
PRVKPQRSKV [PPP1R13L, Q8WUF5]	below the threshold
FHPLGADSQV [SLC2A1, P11166]	below the threshold
